Test system: NQO1 activation in BEAS-2B cells
Experiment: BEAS-2B cellular MTT assay of NQO1 activation, 0.3% HSA
Format: cell-based
Details: Homo sapiens, BEAS+, read-out: BEAS+ EC50
Method: The growth rate of the BEAS-2B cells changed based on the lot of BEGM SingleQuots in the BEGM media. The cell growth rate was determined for each lot of SingleQuots. […] Until the cell growth rate was determined, cells were seeded at different densities (cells/cm^2) in multiple tissue culture flasks in order to avoid the cells becoming more than 70% confluent. […]
Doc: threshold 200 nM (exclusive). Items with EC50 beneath it return Y; others return N.

Reference set (2 entries):
1. Cc1c2ccc3c1nnn3CCCCCc1cnc(c(F)c1)C(=O)N1CCc3ccc(cc3C1)C2CC(=O)O (centres unmarked) : N
2. O=C(O)CC1c2ccc3c(c2)CN(CC3)C(=O)c2ccc(cn2)OCCCCCCn2nnc3c(Cl)c1ccc32 (centres unmarked) : N

Turning to the following compound.
Incoming: Does "Cc1c2ccc3c1nnn3CCCOCCOc1cc(F)c(c(F)c1)C(=O)N1CCc3ccc(cc3C1)[C@@H]2[C@H](C)C(=O)O" have EC50 strictly under 200 nM?
Outgoing: N
